Hello, the source for this data is patent US20250206730A1, in case you need it.

target: ALK5 kinase (Homo sapiens, UniProt P36897)
Sequence (P36897 34-503): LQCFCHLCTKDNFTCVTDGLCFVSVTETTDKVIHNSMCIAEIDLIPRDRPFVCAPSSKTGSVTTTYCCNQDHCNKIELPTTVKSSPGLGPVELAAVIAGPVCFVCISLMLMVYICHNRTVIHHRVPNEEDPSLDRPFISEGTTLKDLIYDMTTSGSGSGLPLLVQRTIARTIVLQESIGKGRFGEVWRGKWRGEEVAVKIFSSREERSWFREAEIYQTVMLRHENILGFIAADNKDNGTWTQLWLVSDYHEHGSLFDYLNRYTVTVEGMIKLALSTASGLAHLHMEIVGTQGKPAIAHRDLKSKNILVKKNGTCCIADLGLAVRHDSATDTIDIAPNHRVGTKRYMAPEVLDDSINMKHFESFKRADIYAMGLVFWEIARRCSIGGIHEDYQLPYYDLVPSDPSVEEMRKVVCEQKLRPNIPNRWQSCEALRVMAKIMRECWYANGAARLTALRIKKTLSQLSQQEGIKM
pIC50: −log10 of the molar value.
EXPERIMENTAL_ENDPOINT: pIC50

Use these answered entries as a reference point.
CCc1nc(-c2ccccc2)c(Oc2ccnc(Nc3cccc(C(N)=O)c3)c2)s1 [A-183]; > 7.00
CC(C)(O)c1cc(Nc2cc(Oc3sc(N)nc3-c3ccccc3)ccn2)ccn1 [A-42]; > 7.00
CNC(=O)c1ccc(Nc2cc(Oc3sc(C4CC4)nc3-c3ccccc3)ccn2)nc1 [A-133]; > 7.00
CNC(=O)c1ccc(Nc2cc(Oc3sc(C4CCCC4)nc3-c3ccccc3)ccn2)nc1 [A-176]; < 7.00
CNC(=O)c1ccc(Nc2cc(Oc3sc(C(C)C)nc3-c3ccccc3)ccn2)cc1 [A-229]; > 7.00
Cc1cccc(-c2nc(N(C)C)sc2Oc2ccnc(Nc3cccc(S(N)(=O)=O)c3)c2)n1 [A-283]; > 7.00
CCc1nc(-c2ccccc2)c(Oc2ccnc(Nc3ccc(C(=O)O)cn3)c2)s1 [A-192]; > 7.00
Cc1nc(-c2ccccc2)c(Oc2ccnc(Nc3cccc(C(C)(C)O)c3)c2)s1 [A-61]; > 7.00

Continue with the compound presented below.
Request: Lab note: record pIC50 of CC(C)c1nc(-c2ccccc2)c(Oc2ccnc(Nc3ccc(C(N)=O)cc3)c2)s1 [A-222] tested on ALK5 kinase (Homo sapiens, UniProt P36897).
Result: < 7.00
